Data origin: patent EP4741406A1

Assay: Pharmacokinetic study in crab-eating monkeys, intravenous infusion
Conditions: monkey, in vivo, 2 mg/kg
VALUE_KIND: half-life (min)
// note: answer is a bare numeric in min

Look at this compound and give its reported half-life. C[C@@H](OC[C@@]1(c2ccccc2)CC[C@]2(CCC(=O)N2)CN1C(=O)OCSSCCS(=O)(=O)O)c1cc(C(F)(F)F)cc(C(F)(F)F)c1
6.06

----------
Entries and their measured MRT inf follow.
Test: In vivo pharmacokinetic study in rats, intravenous
Conditions: rat, whole blood, 2 mg/kg
// note: answer is a bare numeric in min

- C[C@@H](OC[C@@]1(c2ccccc2)CC[C@]2(CCC(=O)N2)CN1C(=O)OCOP(=O)(O)O)c1cc(C(F)(F)F)cc(C(F)(F)F)c1 [Compound of formula (I), reference compound]: 21

Please find the next compound below.
Look at this compound and give its reported MRT inf. C[C@@H](OC[C@@]1(c2ccccc2)CC[C@]2(CCC(=O)N2)CN1C(=O)OCSSCCCOS(=O)(=O)O)c1cc(C(F)(F)F)cc(C(F)(F)F)c1
7.56

----------
Test: Thermodynamic solubility
Type: physicochemical
Details: aqueous buffer, thermodynamic from solid; 100 mM phosphate buffer pH 7.4, room temperature, shaking 16 hours
VALUE_KIND: solubility at 16 h (mg/mL)
// note: answer is a bare numeric in mg/mL

The cases that follow already have their solubility at 16 h on record.
• C[C@@H](OC[C@@]1(c2ccccc2)CC[C@]2(CCC(=O)N2)CN1C(=O)OCSSCCOCCOCCOCCC(=O)O)c1cc(C(F)(F)F)cc(C(F)(F)F)c1 [Example 47] = 10.9
• C[C@@H](OC[C@@]1(c2ccccc2)CC[C@]2(CCC(=O)N2)CN1C(=O)OCSSCCS(=O)(=O)O)c1cc(C(F)(F)F)cc(C(F)(F)F)c1 [Example 42] = 13.2

Please find the next compound below.
Look at this compound and give its reported solubility at 16 h. C[C@@H](OC[C@@]1(c2ccccc2)CC[C@]2(CCC(=O)N2)CN1C(=O)OCSSCCCOS(=O)(=O)O)c1cc(C(F)(F)F)cc(C(F)(F)F)c1 [Example 39]
6.54

----------
Test: Pharmacokinetic study in crab-eating monkeys, intravenous infusion
Details: monkey, whole blood, 2 mg/kg
VALUE_KIND: half-life (min)
// note: answer is a bare numeric in min

Look at this compound and give its reported half-life. C[C@@H](OC[C@@]1(c2ccccc2)CC[C@]2(CCC(=O)N2)CN1C(=O)OCOP(=O)(O)O)c1cc(C(F)(F)F)cc(C(F)(F)F)c1 [Compound of formula (I), reference compound]
9.06

----------
Experiment: In vivo pharmacokinetic study in rats, intravenous
Conditions: rat, in vivo, 2 mg/kg
VALUE_KIND: half-life (min)
// note: answer is a bare numeric in min

Look at this compound and give its reported half-life. C[C@@H](OC[C@@]1(c2ccccc2)CC[C@]2(CCC(=O)N2)CN1C(=O)OCSSCCS(=O)(=O)O)c1cc(C(F)(F)F)cc(C(F)(F)F)c1 [Example 42]
4.66

----------
Assay: Pharmacokinetic study in crab-eating monkeys, intravenous infusion
Conditions: monkey, in vivo, 2 mg/kg
VALUE_KIND: Cmax (ng/mL)
// note: answer is a bare numeric in ng/mL

Look at this molecule and give its reported Cmax. C[C@@H](OC[C@@]1(c2ccccc2)CC[C@]2(CCC(=O)N2)CN1C(=O)OCSSCCS(=O)(=O)O)c1cc(C(F)(F)F)cc(C(F)(F)F)c1
1620
